Ref: paper PMC12369603

Target: recombinant AplaCSP4 (Agrilus planipennis chemosensory protein 4) (Agrilus planipennis, UniProt A0A1W4XLL0)
Sequence (A0A1W4XLL0 entry or part of it): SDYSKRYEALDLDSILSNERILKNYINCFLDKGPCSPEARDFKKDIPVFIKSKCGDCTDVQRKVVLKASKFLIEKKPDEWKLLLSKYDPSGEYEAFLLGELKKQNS
Assay: biochemical
Format: binding
Details: read-out: K D ±SE (dissociation constant)
measured.quantity: pKd
The value called pKd is obtained by taking minus log10 of the concentration in mol/L.

# example entries with known answers
For CCCCCCCCCC [Decane] , what is its reported pKd?
5.54

Field request: pKd | item: CCCCCCOC(=O)CCC [Hexyl butyrate]
4.94

For the compound CC/C=C\CCOC(=O)c1ccccc1 [cis-3-Hexenyl benzoate] , what pKd is on record?
5.37

Which pKd is reported for this compound? CCCCCCCC [n-Octane]
5.32

Query (compound): CCCCCCCCCCCC [Dodecane] ; field requested: pKd
5.71

Any idea what pKd was measured for C=CC(=C)CCC=C(C)C [Myrcene] ?
5.00

Kindly review the next compound as well.
# query: pKd of entry C=CC(C)(O)CCC=C(C)CCC=C(C)C (mixture of isomers) [Nerolidol]
5.86
